ASSAY COMMENT: Plasma pharmacokinetics, noncompartmental, SAD/MAD trial
Format: in vivo, human
EXPERIMENTAL CONDITIONS: human, in vivo, geometric mean terminal half‐life (t1/2), single doses 25–200 mg
READOUT NAME: half-life

Please report the recorded half-life for C=CC(=O)N1CCC(CNc2ncnc(N)c2-c2ccc(Oc3ccccc3)cc2)CC1 [evobrutinib] .
1.8 to 2.6 h

----------
ASSAY COMMENT: Holter ECG, concentration-QTcF, by-time point and categorical analysis
Type: in vivo, human
EXPERIMENTAL CONDITIONS: human, in vivo, 100 mg, Geometric mean Cmax, 100 mg dose group, day 1
READOUT NAME: Cmax (ng/mL)
Give the value in ng/mL but do not write ng/mL after it.

Please report the recorded Cmax for C=CC(=O)N1CCC(CNc2ncnc(N)c2-c2ccc(Oc3ccccc3)cc2)CC1 .
309

----------
ASSAY COMMENT: Plasma pharmacokinetics, noncompartmental, SAD/MAD trial
Assay type: in vivo, human
EXPERIMENTAL CONDITIONS: human, in vivo, 25 mg, Vz/F, multiple-dose study day 1, 25 mg, N 9; geometric mean (CV% GM)
READOUT NAME: Vd/F (L)
Give the value in L but do not write L after it.

Please report the recorded Vd/F for C=CC(=O)N1CCC(CNc2ncnc(N)c2-c2ccc(Oc3ccccc3)cc2)CC1 .
498

----------
ASSAY COMMENT: Plasma pharmacokinetics, noncompartmental, SAD/MAD trial
Type: in vivo, human
EXPERIMENTAL CONDITIONS: human, in vivo, 200 mg, Vz/F, multiple-dose study day 1, 200 mg, N 9; geometric mean (CV% GM)
READOUT NAME: Vd/F (L)
Give the value in L but do not write L after it.

Please report the recorded Vd/F for C=CC(=O)N1CCC(CNc2ncnc(N)c2-c2ccc(Oc3ccccc3)cc2)CC1 .
647

----------
ASSAY COMMENT: Plasma pharmacokinetics, noncompartmental, SAD/MAD trial
Assay type: in vivo, human
EXPERIMENTAL CONDITIONS: human, in vivo, 500 mg, geometric mean terminal half‐life (t1/2), single doses 350 and 500 mg
READOUT NAME: half-life

Please report the recorded half-life for C=CC(=O)N1CCC(CNc2ncnc(N)c2-c2ccc(Oc3ccccc3)cc2)CC1 .
6.6 to 6.8 h

----------
ASSAY COMMENT: Holter ECG, concentration-QTcF, by-time point and categorical analysis
Format: in vivo, human
EXPERIMENTAL CONDITIONS: human, in vivo, 75 mg, Geometric mean Cmax, 75 mg dose group, day 1
READOUT NAME: Cmax (ng/mL)
Give the value in ng/mL but do not write ng/mL after it.

Please report the recorded Cmax for C=CC(=O)N1CCC(CNc2ncnc(N)c2-c2ccc(Oc3ccccc3)cc2)CC1 .
254

----------
ASSAY COMMENT: Holter ECG, concentration-QTcF, by-time point and categorical analysis
Type: in vivo, human
EXPERIMENTAL CONDITIONS: human, in vivo, 50 mg, Geometric mean Cmax, 50 mg dose group, day 1
READOUT NAME: Cmax (ng/mL)
Give the value in ng/mL but do not write ng/mL after it.

Please report the recorded Cmax for C=CC(=O)N1CCC(CNc2ncnc(N)c2-c2ccc(Oc3ccccc3)cc2)CC1 .
234

----------
ASSAY COMMENT: Holter ECG, concentration-QTcF, by-time point and categorical analysis
Format: in vivo, human
EXPERIMENTAL CONDITIONS: human, in vivo, 350 mg, Geometric mean Cmax, 350 mg dose group, day 1
READOUT NAME: Cmax (ng/mL)
Give the value in ng/mL but do not write ng/mL after it.

Please report the recorded Cmax for C=CC(=O)N1CCC(CNc2ncnc(N)c2-c2ccc(Oc3ccccc3)cc2)CC1 .
846
